# System: Plasmodium falciparum
# measurementProtocol: Antiplasmodial activity against erythrocytic stage of chloroquine-sensitive Plasmodium falciparum 3D7 assessed as inhibition of parasite growth incubated for 3 days by HRP2-ELISA
# Assay type: functional, organism-based
# recordedConditions: 3D7, 72 h
# Lookup of reported log10(IC50) keyed by entry
assayReadout: log10(IC50) (log10 of the value in µM)

[[record]]
molecule = "COc1cc(NC(C)CCCn2cc(COc3ccc4c(c3)[nH]c3c(C)nccc34)nn2)c2ncccc2c1 (stereo not given)"
assayreadout = "log10(IC50)"
numericresult = -0.68

[[record]]
molecule = "COc1cc(NC(C)CCCNC(=O)NCCOc2ccc3c(c2)[nH]c2c(C)nccc23)c2ncccc2c1 (stereo not given)"
assayreadout = "log10(IC50)"
numericresult = 0.83

[[record]]
molecule = "COc1cc(NC(C)CCCNC(=O)NCc2cc3c([nH]c4ccccc43)c(C)n2)c2ncccc2c1 (stereo not given)"
assayreadout = "log10(IC50)"
numericresult = 0.38

[[record]]
molecule = "COc1cc(NC(C)CCCNC(=O)NCc2nccc3c2[nH]c2ccccc23)c2ncccc2c1 (stereo not given)"
assayreadout = "log10(IC50)"
numericresult = 0.67

[[record]]
molecule = "COc1cc(NC(C)CCCN)c2ncccc2c1 (stereo not given)"
assayreadout = "log10(IC50)"
numericresult = 0.69


###

# measurementProtocol: Selectivity index, ratio of IC50 for antiproliferative activity against human HEK293T cells to IC50 for antiproliferative activity against human MCF7 cells
# Assay type: toxicity, cell-based
# recordedConditions: HEK293T cells versus MCF7 cells, read-out: Ratio IC50
Could you please mark Criterion met for values of selectivity ratio below 0.9 and Criterion not met for values at or above it?

[[record]]
compound = "COc1cc(NC(C)CCCn2cc(-c3nccc4c3[nH]c3ccccc34)nn2)c2ncccc2c1 (stereo not drawn)"
label = "Criterion met"

[[record]]
compound = "COc1cc(NC(C)CCCNC(=O)NCc2nccc3c2[nH]c2ccccc23)c2ncccc2c1 (stereo not drawn)"
label = "Criterion met"

[[record]]
compound = "O=c1[nH]cc(F)c(=O)[nH]1"
label = "Criterion met"

[[record]]
compound = "COc1cc(NC(C)CCCn2cc(COc3ccc4c(c3)[nH]c3c(C)nccc34)nn2)c2ncccc2c1 (stereo not drawn)"
label = "Criterion not met"

[[record]]
compound = "COc1cc(NC(C)CCCn2cc(COc3ccc4[nH]c5c(C)nccc5c4c3)nn2)c2ncccc2c1 (stereo not drawn)"
label = "Criterion not met"

[[record]]
compound = "COc1cc(NC(C)CCCNC(=O)NCCOc2ccc3[nH]c4c(C)nccc4c3c2)c2ncccc2c1 (stereo not drawn)"
label = "Criterion met"

[[record]]
compound = "COc1cc(NC(C)CCCNC(=O)NCCn2c3cc(OC)ccc3c3ccnc(C)c32)c2ncccc2c1 (stereo not drawn)"
label = "Criterion not met"

[[record]]
compound = "COc1cc(NC(C)CCCNC(=O)NCc2cc3c([nH]c4ccccc43)c(C)n2)c2ncccc2c1 (stereo not drawn)"
label = "Criterion not met"

[[record]]
compound = "COc1ccc2c(c1)[nH]c1c(C)nccc12"
label = "Criterion not met"

[[record]]
compound = "COc1cc(NC(C)CCCn2cc(-c3cc4c([nH]c5ccccc54)c(C)n3)nn2)c2ncccc2c1 (stereo not drawn)"
label = "Criterion not met"

[[record]]
compound = "COc1cc(NC(C)CCCn2cc(Cn3c4cc(OC)ccc4c4ccnc(C)c43)nn2)c2ncccc2c1 (stereo not drawn)"
label = "Criterion not met"

[[record]]
compound = "COc1cc(NC(C)CCCN)c2ncccc2c1 (stereo not drawn)"
label = "Criterion not met"

[[record]]
compound = "COc1cc(NC(C)CCCNC(=O)NCCOc2ccc3c(c2)[nH]c2c(C)nccc23)c2ncccc2c1 (stereo not drawn)"
label = "Criterion met"


###

# Tested on: Plasmodium falciparum
# measurementProtocol: Antiplasmodial activity against erythrocytic stage of chloroquine-resistant Plasmodium falciparum Dd2 assessed as inhibition of parasite growth incubated for 3 days by HRP2-ELISA
# Format: functional, organism-based
# recordedConditions: Dd2, 72 h
pIC50: −log10 of the molar value.
assayReadout: pIC50

[[record]]
compound = "COc1ccc2c(c1)[nH]c1c(C)nccc12"
comparisonsign = "<"
numericresult = 4.56

[[record]]
compound = "COc1cc(NC(C)CCCN)c2ncccc2c1 (stereo not drawn)"
comparisonsign = "="
numericresult = 5.26

[[record]]
compound = "COc1cc(NC(C)CCCn2cc(-c3nccc4c3[nH]c3ccccc34)nn2)c2ncccc2c1 (stereo not drawn)"
comparisonsign = "="
numericresult = 5.35

[[record]]
compound = "COc1cc(NC(C)CCCn2cc(Cn3c4cc(OC)ccc4c4ccnc(C)c43)nn2)c2ncccc2c1 (stereo not drawn)"
comparisonsign = "="
numericresult = 6.04

[[record]]
compound = "COc1cc(NC(C)CCCn2cc(COc3ccc4c(c3)[nH]c3c(C)nccc34)nn2)c2ncccc2c1 (stereo not drawn)"
comparisonsign = "="
numericresult = 6.45

[[record]]
compound = "COc1cc(NC(C)CCCNC(=O)NCc2cc3c([nH]c4ccccc43)c(C)n2)c2ncccc2c1 (stereo not drawn)"
comparisonsign = "="
numericresult = 5.63

[[record]]
compound = "COc1cc(NC(C)CCCn2cc(COc3ccc4[nH]c5c(C)nccc5c4c3)nn2)c2ncccc2c1-c1c(OC)cc(NC(C)CCCn2cc(COc3ccc4[nH]c5c(C)nccc5c4c3)nn2)c2ncccc12 (stereo not drawn)"
comparisonsign = "="
numericresult = 7.76

[[record]]
compound = "COc1cc(NC(C)CCCNC(=O)NCCOc2ccc3[nH]c4c(C)nccc4c3c2)c2ncccc2c1 (stereo not drawn)"
comparisonsign = "="
numericresult = 5.05

[[record]]
compound = "COc1cc(NC(C)CCCNC(=O)NCCn2c3cc(OC)ccc3c3ccnc(C)c32)c2ncccc2c1 (stereo not drawn)"
comparisonsign = "="
numericresult = 5.96

[[record]]
compound = "COc1cc(NC(C)CCCNC(=O)NCc2nccc3c2[nH]c2ccccc23)c2ncccc2c1 (stereo not drawn)"
comparisonsign = "="
numericresult = 5.21

[[record]]
compound = "COc1cc(NC(C)CCCNC(=O)NCCOc2ccc3c(c2)[nH]c2c(C)nccc23)c2ncccc2c1 (stereo not drawn)"
comparisonsign = "="
numericresult = 5.09

[[record]]
compound = "COc1cc(NC(C)CCCn2cc(COc3ccc4[nH]c5c(C)nccc5c4c3)nn2)c2ncccc2c1 (stereo not drawn)"
comparisonsign = "="
numericresult = 6.05

[[record]]
compound = "COc1cc(NC(C)CCCn2cc(-c3cc4c([nH]c5ccccc54)c(C)n3)nn2)c2ncccc2c1 (stereo not drawn)"
comparisonsign = "="
numericresult = 6.20


###

# measurementProtocol: Selectivity index, ratio of IC50 for antiproliferative activity against human HEK293T cells to IC50 for antiplasmodial activity against erythrocytic stage of chloroquine-sensitive Plasmodium falciparum 3D7
# Type: toxicity, cell-based
# recordedConditions: read-out: Ratio IC50
assayReadout: selectivity ratio

[[record]]
compound = "COc1cc(NC(C)CCCn2cc(COc3ccc4[nH]c5c(C)nccc5c4c3)nn2)c2ncccc2c1-c1c(OC)cc(NC(C)CCCn2cc(COc3ccc4[nH]c5c(C)nccc5c4c3)nn2)c2ncccc12 (stereo not drawn)"
assayreadout = "selectivity ratio"
comparisonsign = ">"
numericresult = 3250

[[record]]
compound = "COc1cc(NC(C)CCCNC(=O)NCCn2c3cc(OC)ccc3c3ccnc(C)c32)c2ncccc2c1 (stereo not drawn)"
assayreadout = "selectivity ratio"
comparisonsign = "="
numericresult = 18.1

[[record]]
compound = "COc1cc(NC(C)CCCn2cc(Cn3c4cc(OC)ccc4c4ccnc(C)c43)nn2)c2ncccc2c1 (stereo not drawn)"
assayreadout = "selectivity ratio"
comparisonsign = ">"
numericresult = 95.5

[[record]]
compound = "COc1cc(NC(C)CCCNC(=O)NCCOc2ccc3c(c2)[nH]c2c(C)nccc23)c2ncccc2c1 (stereo not drawn)"
assayreadout = "selectivity ratio"
comparisonsign = "="
numericresult = 1.1

[[record]]
compound = "COc1cc(NC(C)CCCn2cc(-c3nccc4c3[nH]c3ccccc34)nn2)c2ncccc2c1 (stereo not drawn)"
assayreadout = "selectivity ratio"
comparisonsign = "="
numericresult = 10

[[record]]
compound = "COc1cc(NC(C)CCCn2cc(-c3cc4c([nH]c5ccccc54)c(C)n3)nn2)c2ncccc2c1 (stereo not drawn)"
assayreadout = "selectivity ratio"
comparisonsign = ">"
numericresult = 58.3

[[record]]
compound = "COc1ccc2c(c1)[nH]c1c(C)nccc12 [HARMINE]"
assayreadout = "selectivity ratio"
comparisonsign = "="
numericresult = 2.5

[[record]]
compound = "COc1cc(NC(C)CCCNC(=O)NCc2nccc3c2[nH]c2ccccc23)c2ncccc2c1 (stereo not drawn)"
assayreadout = "selectivity ratio"
comparisonsign = "="
numericresult = 0.1


###

# Tested on: HepG2
# measurementProtocol: Antiproliferative activity against human HepG2 cells assessed as reduction in cell viability incubated for 72 hrs by MTT assay
# Format: functional, cell-based
# recordedConditions: HepG2, 72 h
assayReadout: IC50 (µM)

[[record]]
molecule = "COc1cc(NC(C)CCCn2cc(COc3ccc4c(c3)[nH]c3c(C)nccc34)nn2)c2ncccc2c1 (stereo not given)"
assayreadout = "IC50"
comparisonsign = "="
numericresult = 7.87

[[record]]
molecule = "COc1cc(NC(C)CCCn2cc(Cn3c4cc(OC)ccc4c4ccnc(C)c43)nn2)c2ncccc2c1 (stereo not given)"
assayreadout = "IC50"
comparisonsign = ">"
numericresult = 50

[[record]]
molecule = "COc1cc(NC(C)CCCn2cc(COc3ccc4[nH]c5c(C)nccc5c4c3)nn2)c2ncccc2c1 (stereo not given)"
assayreadout = "IC50"
comparisonsign = "="
numericresult = 6.67

[[record]]
molecule = "COc1cc(NC(C)CCCNC(=O)NCCOc2ccc3c(c2)[nH]c2c(C)nccc23)c2ncccc2c1 (stereo not given)"
assayreadout = "IC50"
comparisonsign = "="
numericresult = 7.97

[[record]]
molecule = "COc1ccc2c(c1)[nH]c1c(C)nccc12"
assayreadout = "IC50"
comparisonsign = "="
numericresult = 14.9


Recorded values, source ChEMBL document CHEMBL5550130.
